Molecular target: Dual specificity tyrosine-phosphorylation-regulated kinase 1B (Homo sapiens, UniProt Q9Y463)
Sequence (Q9Y463 whole entry): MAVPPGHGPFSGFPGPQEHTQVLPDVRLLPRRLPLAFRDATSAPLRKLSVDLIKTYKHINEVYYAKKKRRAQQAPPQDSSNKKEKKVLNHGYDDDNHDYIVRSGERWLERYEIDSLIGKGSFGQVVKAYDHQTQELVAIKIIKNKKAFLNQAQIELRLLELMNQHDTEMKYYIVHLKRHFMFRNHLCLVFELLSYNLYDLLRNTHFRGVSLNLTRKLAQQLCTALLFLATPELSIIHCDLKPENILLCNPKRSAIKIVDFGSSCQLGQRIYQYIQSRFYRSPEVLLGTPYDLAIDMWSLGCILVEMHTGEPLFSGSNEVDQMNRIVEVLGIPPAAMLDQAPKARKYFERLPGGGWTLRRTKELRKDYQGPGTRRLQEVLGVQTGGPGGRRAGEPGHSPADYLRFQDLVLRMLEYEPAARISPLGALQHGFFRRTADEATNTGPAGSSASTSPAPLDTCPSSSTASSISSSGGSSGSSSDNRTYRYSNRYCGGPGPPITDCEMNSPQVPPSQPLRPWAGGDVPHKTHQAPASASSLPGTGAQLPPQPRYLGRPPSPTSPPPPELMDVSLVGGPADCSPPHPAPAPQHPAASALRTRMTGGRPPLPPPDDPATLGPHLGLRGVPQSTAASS
metric: pIC50
Please express pIC50 as -log10 of the molar concentration.

[[record]]
smilesrepr = "O=C1NC(N2CCC(N3CCCCC3)CC2)=N/C1=C\\c1ccc2c(c1)OCO2"
metric = "pIC50"
valueobserved = 5.36

[[record]]
smilesrepr = "O=C1NC(Nc2ccc(O)c(F)c2)=N/C1=C\\c1ccc2c(c1)OCO2"
metric = "pIC50"
valueobserved = 7.64


Input: Please look up its pIC50: Cc1ccc(NC2=N/C(=C\c3ccc4c(c3)OCO4)C(=O)N2)cc1
Output: 7.28

Input: Please look up its pIC50: O=C1NC(Nc2ccc(O)cc2)=N/C1=C\c1ccc2c(c1)OCO2
Output: 7.62

Input: Please look up its pIC50: CN1CCN(c2ccc(NC3=N/C(=C\C4=COc5ccccc5O4)C(=O)N3)cc2)CC1
Output: 7.70

Input: Please look up its pIC50: O=C1NC(N2CCCC2)=N/C1=C\c1ccc2c(c1)OCO2
Output: 5.64

Input: Please look up its pIC50: COc1cc(/C=C2\N=C(Nc3ccccc3)NC2=O)ccc1O
Output: 7.21

Input: Please look up its pIC50: O=C1NC(Nc2ccccc2)=N/C1=C\c1ccc2c(c1)CCCO2
Output: 6.44

Input: Please look up its pIC50: CCCNC1=N/C(=C\c2ccc3c(c2)OCO3)C(=O)N1C
Output: 6.26

* * *

Listed here are molecules together with their documented pIC50.
Molecular target: Dual specificity tyrosine-phosphorylation-regulated kinase 2 (Homo sapiens)
Sequence (Q92630 whole entry, the tested form may be a part): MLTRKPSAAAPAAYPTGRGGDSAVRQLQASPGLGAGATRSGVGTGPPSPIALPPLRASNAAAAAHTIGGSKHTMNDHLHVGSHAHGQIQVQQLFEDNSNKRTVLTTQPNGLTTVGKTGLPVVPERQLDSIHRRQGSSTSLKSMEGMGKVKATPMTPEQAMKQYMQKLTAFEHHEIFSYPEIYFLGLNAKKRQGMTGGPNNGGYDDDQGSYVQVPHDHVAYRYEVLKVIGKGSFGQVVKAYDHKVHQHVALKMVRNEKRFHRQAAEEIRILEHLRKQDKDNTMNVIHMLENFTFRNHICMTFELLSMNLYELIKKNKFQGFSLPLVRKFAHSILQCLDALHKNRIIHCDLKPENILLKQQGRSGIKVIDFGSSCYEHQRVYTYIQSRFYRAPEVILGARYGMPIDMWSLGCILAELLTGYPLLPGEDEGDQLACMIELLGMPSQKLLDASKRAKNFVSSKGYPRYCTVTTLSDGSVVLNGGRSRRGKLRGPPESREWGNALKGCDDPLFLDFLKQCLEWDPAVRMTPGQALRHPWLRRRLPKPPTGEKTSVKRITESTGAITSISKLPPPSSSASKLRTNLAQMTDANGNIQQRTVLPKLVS
Test: Inhibition of GST-fused human recombinant DYRK2 expressed in Escherichia coli using GRSRSRSRSRSR peptide as substrate incubated for 30 mins in presence of ATP by scintillation counting method
Please express pIC50 as -log10 of the molar concentration.

[[record]]
smilesrepr = "O=C1NC(Nc2ccccc2)=N/C1=C\\c1ccc2c(c1)OCCO2"
valueobserved = 7.04

[[record]]
smilesrepr = "O=C1NC(N2CCOCC2)=N/C1=C\\c1ccc2c(c1)OCO2"
valueobserved = 6.39

[[record]]
smilesrepr = "COc1ccc(/C=C2\\N=C(Nc3ccccc3)NC2=O)cc1"
valueobserved = 6.66

[[record]]
smilesrepr = "Cc1ccc(NC2=N/C(=C\\c3ccc4c(c3)OCO4)C(=O)N2)cc1C"
valueobserved = 7.26

[[record]]
smilesrepr = "COc1cc(/C=C2\\N=C(Nc3ccc(N4CCCCC4)cc3)NC2=O)ccc1O"
valueobserved = 6.39

[[record]]
smilesrepr = "CN1C(=O)/C(=C/c2ccc3c(c2)OCO3)N=C1Nc1ccccc1"
valueobserved = 7.10

[[record]]
smilesrepr = "O=C1NC(Nc2ccc(N3CCNCC3)cc2)=N/C1=C\\c1ccc2c(c1)OCO2"
valueobserved = 6.39

[[record]]
smilesrepr = "O=C1NC(Nc2ccc(Oc3ccccc3)cc2)=N/C1=C\\c1ccc2c(c1)OCO2"
valueobserved = 5.96


Input: Which pIC50 is reported with Dual specificity tyrosine-phosphorylation-regulated kinase 2 (Homo sapiens) for this entry: NC1=N/C(=C\c2ccc3c(c2)OCO3)C(=O)N1 ?
Output: 7.49

Input: Which pIC50 is reported with Dual specificity tyrosine-phosphorylation-regulated kinase 2 (Homo sapiens) for this entry: O=C1NC(Nc2ccccc2)=N/C1=C\c1ccc2c(c1)CCCO2 ?
Output: 6.92

* * *

Molecular target: Cannabinoid receptor 1 (Homo sapiens)
Sequence (P21554 whole entry): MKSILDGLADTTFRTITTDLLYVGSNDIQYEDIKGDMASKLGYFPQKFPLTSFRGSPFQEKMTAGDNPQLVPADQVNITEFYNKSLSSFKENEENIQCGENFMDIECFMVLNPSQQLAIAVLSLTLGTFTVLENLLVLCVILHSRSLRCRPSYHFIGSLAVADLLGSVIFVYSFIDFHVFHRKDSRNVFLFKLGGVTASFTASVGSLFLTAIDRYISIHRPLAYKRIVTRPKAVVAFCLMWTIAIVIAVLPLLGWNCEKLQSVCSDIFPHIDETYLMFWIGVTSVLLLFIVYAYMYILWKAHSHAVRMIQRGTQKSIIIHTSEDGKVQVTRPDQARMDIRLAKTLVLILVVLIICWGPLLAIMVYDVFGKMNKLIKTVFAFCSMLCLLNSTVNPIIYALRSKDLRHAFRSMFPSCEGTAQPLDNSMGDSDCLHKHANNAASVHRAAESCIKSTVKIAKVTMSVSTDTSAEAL
Assay: Antagonist activity at CP-55940-activated CB1 receptor (unknown origin) at 10 uM by beta-arrestin assay relative to control
Assay type: functional
Set-up: scale not given: the % may be the effect or the level left
Activity below -40% gives n; Activity at or above it gives y.

[[record]]
smilesrepr = "O=C1N=C(Nc2ccccc2)S/C1=C\\c1ccc2c(c1)OCO2"
label = "y"

[[record]]
smilesrepr = "COc1cc(/C=C2\\N=C(Nc3ccccc3)NC2=O)ccc1O"
label = "y"

[[record]]
smilesrepr = "O=C1NC(Nc2ccccn2)=N/C1=C\\c1ccc2c(c1)OCO2"
label = "y"


Input: // inclusive: Activity at least -40%? input: O=C1NC(Nc2ccc(N3CCNCC3)cc2)=N/C1=C\c1ccc2c(c1)OCO2
Output: n

Input: // inclusive: Activity at least -40%? input: C/C(=C1/N=C(Nc2ccccc2)NC1=O)c1ccc2c(c1)OCO2
Output: n
